Test system: Staphylococcus aureus
Experiment: Antibacterial activity against Staphylococcus aureus ATCC 6538P after 24 hrs by two-fold serial dilution method
Type: functional
Below, each entry is listed alongside its reported MIC.
# unit: µg/mL | format: bare number

# COMPOUND, MIC (µg/mL)
measured = [
    ("CCN(CC)CCSc1nc(-c2ccccc2)c(C#N)c(=O)[nH]1", 3.91),
]

Now examine the next entry.
Quick check: MIC of CSc1nc(-c2ccco2)c(C#N)c(=O)n1C ?
125

* * *

System: Pseudomonas aeruginosa
Assay: Antibacterial activity against Pseudomonas aeruginosa ATCC 9027 after 24 hrs by two-fold serial dilution method
Assay type: functional
Settings: ATCC 9027, 24 h
Reported MIC is given for each of the following compounds.

Before answering, review these 5 worked examples.
# COMPOUND, STUDY TARGET, MIC
records = [
    ("N#Cc1c(N2CCN(Cc3ccccc3)CC2)nc(=S)[nH]c1-c1ccco1", "Pseudomonas aeruginosa", "125 µg/mL"),
    ("CCN(CC)CCSc1nc(-c2ccccc2)c(C#N)c(=O)[nH]1", "Pseudomonas aeruginosa", "125 µg/mL"),
    ("N#Cc1c(N2CCOCC2)nc(=S)[nH]c1-c1ccccc1", "Pseudomonas aeruginosa", "125 µg/mL"),
    ("CCOC(=O)CC(=N)N(NC(=O)CC#N)c1nc(-c2ccccc2)c(C#N)c(=O)n1C", "Pseudomonas aeruginosa", "125 µg/mL"),
    ("N#Cc1c(-c2ccco2)nc(SCC(O)CN2CCOCC2)nc1N1CCOCC1 (stereo not drawn)", "Pseudomonas aeruginosa", "125 µg/mL"),
]

Entry under review: N#Cc1c(-c2ccco2)nc(SCC2CO2)[nH]c1=O (stereo not drawn) . Reported MIC?
125 µg/mL

For the compound shown here, Cn1c(-n2[nH]c3c(c2=O)C(=O)CC(=O)O3)nc(-c2ccccc2)c(C#N)c1=O , give the reported MIC.
125 µg/mL

For N#Cc1c(-c2ccccc2)nc(SCC(=O)Nc2ccc(Cl)cc2)[nH]c1=O , what is its reported MIC?
125 µg/mL

Give the measured MIC of N#Cc1c(Cl)nc(=S)[nH]c1-c1ccco1 .
62.5 µg/mL

Entry N#Cc1c(N2CCN(Cc3ccccc3)CC2)nc(=S)[nH]c1-c1ccccc1 : reported MIC = ?
125 µg/mL

Bench note: what MIC did N#Cc1c(Cl)nc(=S)[nH]c1-c1ccccc1 show?
125 µg/mL

Which value of MIC has been reported for Cn1c(N2CCN(Cc3ccccc3)CC2)nc(-c2ccccc2)c(C#N)c1=O in the records?
125 µg/mL

Return reported MIC; argument: CC1COc2c(N3CCN(C)CC3)c(F)cc3c(=O)c(C(=O)O)cn1c23 (stereo not drawn)
1.95 µg/mL

* * *

Test system: SK-MEL-2
Assay: Cytotoxicity against human SK-MEL-2 cells assessed as growth inhibition at 10 uM
Assay type: functional
Details: read-out: GI
PARAMETER: inhibition of growth at 10 µM (%)
Provide only the numeric value, understood in %.

# MOLECULE, ENDPOINT UNIT, inhibition of growth at 10 µM
data = [
    ("Cn1c(N2CCCCC2)nc(-c2ccco2)c(C#N)c1=O", "%", 70.7),
    ("N#Cc1c(N2CCOCC2)nc(=S)[nH]c1-c1ccco1", "%", 63),
    ("N#Cc1c(-c2ccccc2)nc(SCC(O)CN2CCOCC2)nc1N1CCOCC1 (stereo not given)", "%", 92.7),
    ("N#Cc1c(N2CCOCC2)nc(=S)[nH]c1-c1ccccc1", "%", 58.2),
]

Which inhibition of growth at 10 µM value is on record for Cn1c(N2CCCCC2)nc(-c2ccccc2)c(C#N)c1=O ?
69.8

* * *

# zone of inhibition at 1000 µg/mL per record follows
Tested on: Candida albicans
Assay: Antifungal activity against Candida albicans ATCC 2091 assessed as diameter of inhibition zone at 1 mg/ml after 48 hrs by cup diffusion method (reference value: 22 mm)
Assay type: functional
Conditions: ATCC 2091, 48 h, read-out: DIZ
# number only, unit mm dropped from output

# example entries with known answers
# COMPOUND, VALUE MEASURED
measured = [
    ("COc1ccc(NC(=O)CSc2nc(-c3ccco3)c(C#N)c(=O)[nH]2)cc1", 23),
    ("N#Cc1c(-c2ccccc2)nc(SCC(=O)Nc2ccc(Cl)cc2)[nH]c1=O", 30),
    ("N#Cc1c(Cl)nc(=S)[nH]c1-c1ccco1", 22),
]

Bench note: what zone of inhibition at 1000 µg/mL did N#Cc1c(Cl)nc(=S)[nH]c1-c1ccccc1 show?
22

Look up zone of inhibition at 1000 µg/mL: N#Cc1c(-c2ccccc2)nc(SCC(O)CN2CCOCC2)nc1N1CCOCC1 (stereo not drawn)
24

If you can, please state the reported zone of inhibition at 1000 µg/mL value of N#Cc1c(-c2ccco2)nc(SCC2CO2)[nH]c1=O (stereo not drawn) .
25

GET /values?readout=zone of inhibition at 1000 µg/mL&item= COc1ccc(NC(=O)CSc2nc(-c3ccccc3)c(C#N)c(=O)[nH]2)cc1
22

Request the reported zone of inhibition at 1000 µg/mL associated with N#Cc1c(N2CCCCC2)nc(=S)[nH]c1-c1ccccc1
22

Fill in the blank: the reported zone of inhibition at 1000 µg/mL of N#Cc1c(-c2ccc([N+](=O)[O-])cc2)nc(SCC2CO2)[nH]c1=O (stereo not drawn) is ____.
22

What measured zone of inhibition at 1000 µg/mL goes with Cn1c(N2CCOCC2)nc(-c2ccco2)c(C#N)c1=O ?
22

Name the reported zone of inhibition at 1000 µg/mL value associated with the compound Cn1c(NN)nc(-c2ccco2)c(C#N)c1=O
22

Requested read-out: zone of inhibition at 1000 µg/mL. Entry: N#Cc1c(Cl)nc(SCC2CO2)nc1-c1ccco1 (stereo not drawn)
22

Endpoint output: zone of inhibition at 1000 µg/mL of N#Cc1c(N2CCCCC2)nc(=S)[nH]c1-c1ccco1 . Value?
22

Data request, read-out zone of inhibition at 1000 µg/mL, for Cn1c(N2CCN(Cc3ccccc3)CC2)nc(-c2ccco2)c(C#N)c1=O
22

For the compound shown here, N#Cc1c(-c2ccccc2)nc(SCC2CO2)[nH]c1=O (stereo not drawn) , give the reported zone of inhibition at 1000 µg/mL.
22

Dear colleague, I am looking for the recorded zone of inhibition at 1000 µg/mL of the following compound: N#Cc1c(-c2ccco2)[nH]c(=S)[nH]c1=O
22

Could you tell me which zone of inhibition at 1000 µg/mL is on file for N#Cc1c(-c2ccco2)nc(SCC(O)CN2CCOCC2)[nH]c1=O (stereo not drawn) ?
22

Need zone of inhibition at 1000 µg/mL of N#Cc1c(N2CCOCC2)nc(=S)[nH]c1-c1ccc([N+](=O)[O-])cc1 , thanks.
22

Requested field: zone of inhibition at 1000 µg/mL. Item: Cn1c(-n2[nH]c3c(c2=O)C(=O)CC(=O)O3)nc(-c2ccco2)c(C#N)c1=O
22

What does the data say about its zone of inhibition at 1000 µg/mL? Entry: N#Cc1c(N2CCN(Cc3ccccc3)CC2)nc(=S)[nH]c1-c1ccco1
29

Quick one: zone of inhibition at 1000 µg/mL of N#Cc1c(-c2ccco2)nc(SCC(O)CN2CCOCC2)nc1N1CCOCC1 (stereo not drawn) ?
25

Item Cn1c(=O)c(C#N)c(-c2ccccc2)n2c(CC#N)nnc12 has what recorded zone of inhibition at 1000 µg/mL?
22

Any idea what its zone of inhibition at 1000 µg/mL is? The compound is N#Cc1c(N2CCOCC2)nc(=S)[nH]c1-c1ccco1
22

* * *

Form field: inhibition of growth at 10 µM (one value per entry).
Tested on: T47D
Experiment: Cytotoxicity against human T47D cells assessed as growth inhibition at 10 uM
Type: functional
Settings: read-out: GI
Provide only the numeric value, understood in %.

Please review the following examples before continuing.
# COMPOUND, STUDY TARGET, PARAMETER, VALUE MEASURED
records = [
    ("N#Cc1c(N2CCOCC2)nc(=S)[nH]c1-c1ccccc1", "T47D", "inhibition of growth at 10 µM", 62.7),
    ("N#Cc1c(-c2ccccc2)nc(SCC(O)CN2CCOCC2)nc1N1CCOCC1 (centres undefined)", "T47D", "inhibition of growth at 10 µM", 74),
    ("N#Cc1c(N2CCOCC2)nc(=S)[nH]c1-c1ccco1", "T47D", "inhibition of growth at 10 µM", 81.1),
]

Consider now this further compound.
# query: inhibition of growth at 10 µM of entry N#Cc1c(-c2ccccc2)nc(SCC2CO2)nc1N1CCOCC1 (centres undefined)
84.6
